This collection of values is drawn from patent US7528274B2.

test: XTT assay, cytotoxicity (cellular growth inhibition) in CEM-SS cells; assay type: cell-based; conditions: human
Note to self: use rule met only for IC50 at 7 days readings below 500 µM; a reading exactly at 500 µM still gets rule not met.

> print(dat)
                                   compound         class
1  C[C@H](NC(=O)c1ccccc1SC(=O)OCCCCCl)C(N)=O [Compound 81]      rule met
2  C[C@@H](NC(=O)c1ccccc1SC(=O)NCCCCl)C(N)=O [Compound 87]      rule met
3  NC(=O)CCNC(=O)c1ccccc1SC(=O)c1cccnc1 [Compound 19]      rule met
4  CSC(=N)Sc1ccccc1C(=O)N[C@@H](C)C(N)=O [Compound 136]      rule met
5  COc1cccc(C(=O)Sc2ccccc2C(=O)NCCC(N)=O)c1 [Compound 14]  rule not met

* * *

assay: XTT assay, cytotoxicity (cellular growth inhibition) in CEM-SS cells; type: cell-based; conditions: human
Recorded log10(IC50 at 7 days) values for a group of molecules are listed next.
property-name: log10(IC50 at 7 days) (log10 of the value in µM)

> print(dat)
                                    molecule  measurement
 1  C[C@@H](NC(=O)c1ccccc1SC(=O)OCCBr)C(N)=O         2.40
 2          NC(=O)CNC(=O)c1ccccc1SC(=O)NCCBr         0.72
 3         NC(=O)CNC(=O)c1ccccc1SC(=O)NCCCCl         2.04
 4  CCCCCNC(=O)Sc1ccccc1C(=O)N[C@H](C)C(N)=O         1.74
 5  C[C@@H](NC(=O)c1ccccc1SC(=O)NCCBr)C(N)=O         0.90
 6  CC(C)(C)c1ccc(C(=O)Sc2ccccc2C(=O)NCCC(N)=O)cc1         2.03
 7   Cc1ccc(C(=O)Sc2ccccc2C(=O)NCCC(N)=O)cc1         2.29
 8  NC(=O)CCNC(=O)c1ccc(Cl)cc1SC(=O)Cc1ccccc1         1.54
 9   CCCCNC(=O)Sc1ccccc1C(=O)N[C@H](C)C(N)=O         1.51
10  NS(=O)(=O)c1ccc(CNC(=O)c2ccccc2SC(=O)OCCCCCl)cc1         1.81
11  CCC(C)C(NC(=O)c1ccccc1SC(=O)OCCCCCl)C(N)=O (stereo not drawn)         2.11
12    CC(C)(C)C(=O)Sc1cccc(C(=O)NCCC(N)=O)c1         2.05
13           CCNC(=O)Sc1ccccc1C(=O)NCCC(N)=O         2.01
14   CCOC(=O)CCNC(=O)Sc1ccccc1C(=O)NCCC(N)=O         2.07
15         CCCCNC(=O)Sc1ccccc1C(=O)NCCC(N)=O         1.59
16  NS(=O)(=O)c1ccc(CNC(=O)c2ccccc2SC(=O)Oc2ccc([N+](=O)[O-])cc2)cc1         1.76
17  COc1ccc(C(=O)Sc2ccccc2C(=O)NCCC(N)=O)cc1OC         2.22
18    CCCNC(=O)Sc1ccccc1C(=O)N[C@H](C)C(N)=O         1.35
19   C[C@H](NC(=O)c1ccccc1SC(=O)OCCBr)C(N)=O         2.27
